Each recorded value in this set is attributed to ChEMBL document CHEMBL5365396.

# Test system: BXPC-3
# TEST DETAILS: Antiproliferative activity against human BXPC-3 cells assessed as cell growth inhibition by MTT assay
# Assay type: functional, cell-based
REPORTED ENDPOINT: pIC50
Formally, pIC50 is defined as -log10 of the concentration c, with c in mol/L.

Example molecules with recorded pIC50:
[[record]]
smiles_structure = "CC(C)(C)c1[nH]cnc1/C=c1\\[nH]c(=O)/c(=C/c2cccc(N)c2)[nH]c1=O"
recorded_result = 7.10

[[record]]
smiles_structure = "CC(C)(C)c1[nH]cnc1/C=c1\\[nH]c(=O)/c(=C/c2cccc(NC(=O)c3cccc(C(=O)c4ccccc4)c3)c2)[nH]c1=O"
recorded_result = 5.35


Prompt: Item under review: CC(C)(C)c1[nH]cnc1/C=c1\[nH]c(=O)/c(=C/c2cccc(NC(=O)c3ccc(F)cc3)c2)[nH]c1=O . Reported pIC50?
Response: 6.23
